Exercise: for every item that follows, state its recorded abundance fitness.
B1: Poly(rC)-binding protein 1, residues 278 to 350; numbered along this chain, Q15365 (parent)
chain: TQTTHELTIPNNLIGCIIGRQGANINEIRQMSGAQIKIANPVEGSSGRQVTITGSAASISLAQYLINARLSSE

Variants of: B1
Assay: abundance fitness (aPCA) (normalised: wild type 0, dead -1); higher = more abundant; growth selection in yeast, the domain comes from the species named
Conditions: Homo sapiens
Give bare numbers.

{"mutationName": "N11T", "property": "abundance fitness", "quantitativeReadout": -0.169}
{"mutationName": "M31G", "property": "abundance fitness", "quantitativeReadout": -0.347}

Dear reader, for each entry below, please note its abundance fitness.
1. Q35P
2. A39V

1. -0.641
2. -0.382
